test system: CCRF-CEM leukemia; assay: NCI-60 one-dose screen, 48 h; details: 10 µM unless noted
Compounds without any hit were thinned out: in the full panel of roughly 83,000, 20% have a hit. Active and inactive are the calls of the source. Rule for the calls: active = growth percent below 10; inactive = the rest.
Outcomes: y (active), n (inactive)

>>> label_value("COc1ccc(OC)c(C(=O)Nc2cccc(-c3cc(=O)c4ccccc4o3)c2)c1")
"n"
>>> label_value("COc1cc(-c2cc(-c3ccc(Nc4nc(Nc5ccccc5)nc(Nc5ccc(Cl)cc5)n4)cc3)nc(N)n2)cc(OC)c1OC")
"n"
>>> label_value("COc1ccc(-c2nc3sc4c(c3c(=O)[nH]2)CCCC4)c2ccccc12")
"n"
>>> label_value("Cn1cc(-c2ccc3nc(-c4ccc(CC(=O)Nc5cc(C(C)(C)C)no5)cc4)cnc3c2)cn1")
"n"
>>> label_value("COc1ccc(Nc2ncc(Br)c(NCCCNC(=O)C3CCC3)n2)cc1")
"n"
>>> label_value("NC(N)=N/N=C(/c1ccccc1)c1ccc(N)cc1")
"n"
>>> label_value("CNC(=O)c1cc(Oc2ccc3nc(NC(=O)Nc4cc(C(F)(F)F)cc(C(F)(F)F)c4)sc3c2)ccn1")
"y"
>>> label_value("O=C1NC(=S)S/C1=C\\N1N=C(c2ccc(Cl)cc2)CC1c1ccc(F)cc1 (centres undefined)")
"n"
>>> label_value("Clc1ccc(-c2nc(NCCc3ccccc3)nc3c(NCCc4ccccc4)cnn23)cc1")
"n"
>>> label_value("O=C(O)CC1Sc2ccccc2NC1=O (centres undefined)")
"n"
>>> label_value("O=C(NCCN1CCC(O)CC1)c1cc2c(o1)C(=O)c1ccccc1C2=O")
"y"
>>> label_value("Nc1ccc(S(=O)(=O)Nc2ccsc2-c2nc(-c3ccccc3)no2)cc1")
"n"
>>> label_value("N#Cc1c(N)nc2c(nnn2-c2cccc(C(F)(F)F)c2)c1N")
"n"
>>> label_value("CC(C)(C)c1ccc(C(=O)Nc2sc3c(c2C(N)=O)CCC(=O)C3)cc1")
"y"
>>> label_value("O=C1/C(=C/c2ccc([N+](=O)[O-])cc2)COc2ccc(O)c(O)c21")
"y"
>>> label_value("O=C1/C(=C/c2ccccc2[N+](=O)[O-])COc2ccc(O)c(O)c21")
"y"
>>> label_value("c1ccc(-c2oc3ccccc3c2-c2ccccc2)cc1")
"n"
>>> label_value("COc1ccc(/C(C)=C(\\c2ccc(Cl)cc2)c2ccc(OCCN(C)C)cc2)cc1F")
"n"
>>> label_value("Nc1c(C(=O)Nc2ccccc2)sc2nc3c(cc12)CCCCCC3")
"y"
>>> label_value("Cc1nc(Nc2ccc(NC(=S)Nc3ccccc3)cc2)nc2nc(Nc3ccc(S(=O)(=O)O)cc3)[nH]c(=O)c12")
"n"
>>> label_value("Cc1cc(=O)c2cc3nc(-c4cccnc4)oc3c(Br)c2o1")
"n"
>>> label_value("CCCCCOC(=O)c1ccc(NC(=O)CNCC(C)C)cc1")
"n"
>>> label_value("COc1ccc(-n2sc(=O)n(Cc3ccc(COC(=O)C(C)c4ccc(CC(C)C)cc4)cc3)c2=O)cc1 (centres undefined)")
"y"
>>> label_value("COc1ccc(NC(=O)c2cccc(-c3cc(=O)c4c(O)c(OC)c(OC)cc4o3)c2)cc1")
"n"
>>> label_value("CS(=O)(=O)c1ccc(-c2[nH]c3ccc(F)cc3c2/C=N/O)cc1")
"n"
>>> label_value("O=[N+]([O-])c1ccc2[nH]cc(-c3c4ccsc4cc4[nH]c5ccc([N+](=O)[O-])cc5c34)c2c1")
"y"
>>> label_value("COc1cc(NC(=O)c2cc(O)c(CC=C(C)C)c(O)c2)cc2c1O[C@]1(C)CC[C@@H](O)C(C)(C)[C@H]1C2")
"n"
>>> label_value("COc1ccccc1NC(=O)Nc1ccc(-c2nc3ccccc3o2)cc1")
"n"
>>> label_value("CN(CCC(=O)/C(=C\\c1ccccc1)c1ccc(Cl)cc1)Cc1ccccc1")
"y"
>>> label_value("C=C1c2c(C)nn(-c3ccc(NC(C)=O)cc3)c2N(C)C23CC1C1(C)c4c(C)nn(-c5ccc(NC(C)=O)cc5)c4N(C)C(C)(CC12)C3 (centres undefined)")
"y"
>>> label_value("COC(=O)c1ccc(CSc2nnc(-c3ccncc3)o2)cc1")
"n"
>>> label_value("CCN(CC)CCOC(=O)N1c2ccccc2Sc2ccccc21")
"n"
>>> label_value("CCN(CC)CCOc1ccc(/C(=C(\\C)c2ccc(F)c(OC)c2)c2ccc(Cl)cc2)cc1")
"n"
>>> label_value("O=S(=O)(NCCNc1cc(-c2c(-c3cccc(O)c3)nc3sccn23)ccn1)c1ccc(Cl)cc1")
"n"
>>> label_value("COc1ccc(-c2nnc(-c3ccc4c(c3)nc(-c3ccccc3)n4C3CCCCC3)o2)cc1")
"n"
>>> label_value("O=C1Nc2ccc(Cl)cc2/C1=N/N=C/c1c[nH]c2ccccc12")
"n"
>>> label_value("COc1ccc(C2CC(c3ccc4ccccc4c3)=NN2c2nc(O)c(C3=c4cc(Cl)ccc4=NC3=O)s2)cc1 (centres undefined)")
"y"
>>> label_value("CCCCN(CCCC)CCCn1c(=O)c2sc3ncccc3c2n2nnc(-c3ccccc3)c12")
"n"
>>> label_value("Cc1[nH]c(-c2nc3ccccc3[nH]2)c(C)c1C(=O)N1CCc2sccc2C1")
"n"

----------
tested on: RPMI-8226 leukemia; assay: NCI-60 one-dose screen, 48 h; conditions: 10 µM unless noted
About 83,000 compounds went through this panel and 20% of them were active in at least one assay; those are over-represented in the sample as a whole. The source made the active and inactive calls. Rule for the calls: active = growth percent below 10; inactive = the rest.
Outcomes: active, inactive

>>> label_value("C=C(C)[C@@H]1CC[C@]2(CN)CC[C@]3(C)[C@H](CC[C@@H]4[C@@]5(C)CCC(N)[C@@](C)(CO)[C@@H]5CC[C@]43C)[C@@H]12 (stereo not given in full)")
"active"
>>> label_value("CN(C)CCCCNc1ccc(NCCCCN(C)C)c2c1C(=O)c1c(O)ccc(O)c1C2=O")
"inactive"
>>> label_value("COc1cc2ccccc2cc1C(=O)NC(=S)Nc1ccc(-c2nc3ccccc3[nH]2)cc1")
"inactive"
>>> label_value("Cc1cc(-c2ccc(N(C)C)cc2)c2sc(=O)[nH]c2n1")
"inactive"
>>> label_value("CN(CCC(=O)/C(=C\\c1ccccc1)c1ccc(Cl)cc1)Cc1ccccc1")
"active"

----------
test system: BT-549 breast; experiment: NCI-60 one-dose screen, 48 h; conditions: 10 µM unless noted
This is part of a sample that, as a whole, favours compounds with a hit. Of some 83,000 tested, about 20% had one in any assay. Active and inactive are the calls of the source. The calls were made as follows: active = growth percent below 10; inactive = the rest.
Outcomes: true for active, false for inactive

>>> label_value("Cc1c(C(=O)O)nnn1-c1nccs1")
"false"
>>> label_value("Nc1nc(Nc2ccc(Cl)cc2)nn1S(=O)(=O)c1ccc(-c2ccc(F)cc2)cc1")
"false"
>>> label_value("CCN(CC)CCCNC(=O)c1ccc(N)cc1")
"false"
>>> label_value("C=C1C(=O)O[C@H]2[C@H]1CC/C(COC(=O)NCc1ccc(Cn3c(=O)sn(CCCCl)c3=O)cc1)=C\\CC[C@@]1(C)O[C@@H]21")
"false"
>>> label_value("O=c1[nH]c(NCc2nnnn2-c2ccc(Br)cc2)nc2sc3c(c12)CCCC3")
"false"
>>> label_value("C=C1c2c(C)nn(-c3ccc(NC(C)=O)cc3)c2N(C)C23CC1C1(C)c4c(C)nn(-c5ccc(NC(C)=O)cc5)c4N(C)C(C)(CC12)C3 (stereo not given)")
"false"
>>> label_value("Cc1nn(-c2ccccc2)c2c1C(c1ccc([N+](=O)[O-])cc1)C(C#N)=C(N)O2 (stereo not given)")
"false"
>>> label_value("CN(C)c1ccc(-c2cc(-c3ccc(Nc4nc(Nc5ccccc5)nc(Nc5ccc(Cl)cc5)n4)cc3)nc(N)n2)cc1")
"false"
>>> label_value("C=C(C=O)[C@@H]1CC=C(C=O)CC1")
"true"
>>> label_value("O=[N+]([O-])c1ccc(-c2cc3c(Nc4ccc(Cl)c(C(F)(F)F)c4)ncnc3s2)cc1")
"true"
>>> label_value("C[C@]12CCC(=O)C[C@H]1CC[C@@H]1[C@@H]2CC[C@@]2(C)[C@H]1CC[C@]2(O)C(=O)CO")
"false"
>>> label_value("COc1cc(-c2cc(-c3ccc(Nc4nc(Nc5ccccc5)nc(Nc5ccc(Cl)cc5)n4)cc3)nc(N)n2)cc(OC)c1OC")
"false"
>>> label_value("C#CC[C@H](N)C(=O)O")
"false"
>>> label_value("C[C@@H](C[C@H](CCOCc1cccnc1)c1ccccc1)c1cc2ccccc2o1")
"false"
>>> label_value("O=[N+]([O-])c1cccc(/C=C/c2ccccn2)c1")
"false"
>>> label_value("N#C/C(=C\\c1ccc(Br)cc1)n1nnc2cc(Cl)c(Cl)cc21")
"false"
>>> label_value("COC(=O)c1ccc2oc(NC(=O)c3ccc(N4CCOCC4)c([N+](=O)[O-])c3)nc2c1")
"false"
>>> label_value("Cc1cnc(Nc2ccc(N3CCN(C)CC3)cc2)nc1Nc1ccc(Cl)c(NS(=O)(=O)C(C)(C)C)c1")
"true"
>>> label_value("C=C1c2c(C)nn(-c3ccc(S(N)(=O)=O)cc3)c2N(C)C23CC1C1(C)c4c(C)nn(-c5ccc(S(N)(=O)=O)cc5)c4N(C)C(C)(CC12)C3 (stereo not given)")
"false"
>>> label_value("N[C@@H]1CCC[C@H]1NCCCCN1C(=O)c2cccc3cccc(c23)C1=O")
"false"
>>> label_value("CCCNCC(=O)Nc1ccc(C(=O)OC(C)(C)CC)cc1")
"false"
>>> label_value("COc1cc(C(=O)Nc2cc(O)c(CC=C(C)C)c(O)c2)cc2c1O[C@]1(C)CC[C@@H](O)C(C)(C)[C@H]1C2")
"false"
>>> label_value("CN=C1C=CC(=C(c2ccc(N(C)C)cc2)c2ccc(N(C)C)cc2)C=C1")
"true"
>>> label_value("c1ccc([P+](CCCc2n(Cc3ccc4ccccc4c3)c3ccccc3[n+]2Cc2ccc3ccccc3c2)(c2ccccc2)c2ccccc2)cc1")
"false"
>>> label_value("C[C@@H]1C(=O)N(C[C@H](Cc2ccccc2)N(Cc2ccccc2)Cc2ccccc2)[C@]1(Cc1ccccc1)C(=O)OC(C)(C)C")
"false"
>>> label_value("C/C(Cc1ccc(Cl)cc1)=C(/c1ccc(Cl)cc1)c1ccc(OCCN(C)C)cc1")
"false"
>>> label_value("O=C1NC(=S)S/C1=C\\N1N=C(c2ccc(Cl)cc2)CC1c1ccc(F)cc1 (stereo not given)")
"false"
>>> label_value("CCOC(=O)c1nnn(C(Cc2ccccc2Cl)C(=O)OCC)c1C (stereo not given)")
"false"
>>> label_value("CS(=O)(=O)c1ccc(-c2[nH]c3ccc(F)cc3c2/C=N/O)cc1")
"false"
>>> label_value("CCNCCNc1cc(C2CCCC2)c(C#N)c2nc3ccccc3n12")
"true"
